test system: Staphylococcus saprophyticus ATCC 49907; format: cell-based; conditions: ATCC 49907
Bridge positions count the residues as written; N and C are the ends. Square brackets hold non-standard residues; d marks the D form. Peptide text beside a SMILES is read from it. ξ: configuration not given here. dNMeF = CN[C@H](Cc1ccccc1)C(=O)O; Ile(3ξ) = CCC(C)[C@H](N)C(=O)O
property: MIC

compound | result
CCC(C)[C@@H]1NC(=O)[C@H](C)NC(=O)[C@H](NC(=O)[C@H](CO)NC(=O)[C@@H](NC(=O)[C@H](NC(=O)[C@@H](CCC(N)=O)NC(=O)[C@H](CCCNC(=N)N)NC(=O)[C@@H](NC(=O)[C@@H](Cc2ccccc2)NC)[C@@H](C)CC)[C@H](C)CC)[C@@H](C)CC)[C@H](C)OC(=O)[C@H]([C@@H](C)CC)NC1=O (some centres unmarked) [Compound 32, Arg3-Ile10-teixobactin] (H-[dNMeF]IR[dQ][dI]IS[dT]A[Ile(3ξ)]I; ester 8-C) | <0.0625 µg/mL
CC[C@@H](C)[C@@H](NC(=O)[C@@H](CCCNC(=N)N)NC(=O)[C@H](CCCNC(=N)N)NC(=O)[C@@H](NC(=O)[C@@H](Cc1ccccc1)NC)[C@@H](C)CC)C(=O)N[C@H](C(=O)N[C@@H](CO)C(=O)N[C@H]1C(=O)N[C@@H](C)C(=O)N[C@@H](CC(C)C)C(=O)N[C@@H]([C@@H](C)CC)C(=O)O[C@H]1C)[C@@H](C)CC [Compound 28, Arg3-D-Arg4-Leu10-teixobactin] (H-[dNMeF]IR[dR][dI]IS[dT]ALI; ester 8-C) | <0.0625 µg/mL

###

Listing of recorded MIC by entry.
test system: SE12228; format: cell-based
Bridge positions count the residues as written; N and C are the ends. Square brackets hold non-standard residues; d marks the D form. Peptide text beside a SMILES is read from it. ξ: configuration not given here. dNMeF = CN[C@H](Cc1ccccc1)C(=O)O; Ile(3ξ) = CCC(C)[C@H](N)C(=O)O
property: MIC

compound | result
CC[C@@H](C)[C@@H](NC(=O)[C@@H](CCCNC(=N)N)NC(=O)[C@H](CO)NC(=O)[C@@H](NC(=O)[C@@H](Cc1ccccc1)NC)[C@@H](C)CC)C(=O)N[C@H](C(=O)N[C@@H](CO)C(=O)N[C@H]1C(=O)N[C@@H](CCCNC(=N)N)C(=O)N[C@@H](CC(C)C)C(=O)N[C@@H]([C@@H](C)CC)C(=O)O[C@H]1C)[C@@H](C)CC [Compound 30, D-Arg4-Arg9-Leu10-teixobactin] (H-[dNMeF]IS[dR][dI]IS[dT]RLI; ester 8-C) | <0.0625 µg/mL
CCC(C)[C@@H]1NC(=O)[C@H](C)NC(=O)[C@H](NC(=O)[C@H](CO)NC(=O)[C@@H](NC(=O)[C@H](NC(=O)[C@@H](CCC(N)=O)NC(=O)[C@H](CCCNC(=N)N)NC(=O)[C@@H](NC(=O)[C@@H](Cc2ccccc2)NC)[C@@H](C)CC)[C@H](C)CC)[C@@H](C)CC)[C@H](C)OC(=O)[C@H]([C@@H](C)CC)NC1=O (stereo partly drawn) [Compound 32, Arg3-Ile10-teixobactin] (H-[dNMeF]IR[dQ][dI]IS[dT]A[Ile(3ξ)]I; ester 8-C) | <0.0625 µg/mL
CCC(C)[C@@H]1NC(=O)[C@H](C)NC(=O)[C@H](NC(=O)[C@H](CO)NC(=O)[C@@H](NC(=O)[C@H](NC(=O)[C@@H](CCCNC(=N)N)NC(=O)[C@H](CO)NC(=O)[C@@H](NC(=O)[C@@H](Cc2ccccc2)NC)[C@@H](C)CC)[C@H](C)CC)[C@@H](C)CC)[C@H](C)OC(=O)[C@H]([C@@H](C)CC)NC1=O (stereo partly drawn) | <0.0625 µg/mL

###

system: MRSA DR 42412 (sputum); test: microbe, parasite or virus in culture; conditions: DR 42412 (sputum)
Bridge positions count the residues as written; N and C are the ends. Square brackets hold non-standard residues; d marks the D form. Peptide text beside a SMILES is read from it. dNMeF = CN[C@H](Cc1ccccc1)C(=O)O
Listing of recorded MIC by entry.

compound | reading.unit | value.relation.sign | MIC
CCC(C)[C@@H]1NC(=O)[C@H](C)NC(=O)[C@H](NC(=O)[C@H](CO)NC(=O)[C@@H](NC(=O)[C@H](NC(=O)[C@@H](CCCNC(=N)N)NC(=O)[C@H](CO)NC(=O)[C@@H](NC(=O)[C@@H](Cc2ccccc2)NC)[C@@H](C)CC)[C@H](C)CC)[C@@H](C)CC)[C@H](C)OC(=O)[C@H]([C@@H](C)CC)NC1=O (some centres unmarked) | µg/mL | < | 0.0625
CC[C@@H](C)[C@@H](NC(=O)[C@@H](CCCNC(=N)N)NC(=O)[C@H](CO)NC(=O)[C@@H](NC(=O)[C@@H](Cc1ccccc1)NC)[C@@H](C)CC)C(=O)N[C@H](C(=O)N[C@@H](CO)C(=O)N[C@H]1C(=O)N[C@@H](C)C(=O)N[C@@H](CC(C)C)C(=O)N[C@@H]([C@@H](C)CC)C(=O)O[C@H]1C)[C@@H](C)CC | µg/mL | = | 0.0313
CC[C@@H](C)[C@@H](NC(=O)[C@@H](CCC(N)=O)NC(=O)[C@H](CO)NC(=O)[C@@H](NC(=O)[C@@H](Cc1ccccc1)NC)[C@@H](C)CC)C(=O)N[C@H](C(=O)N[C@@H](CO)C(=O)N[C@H]1C(=O)N[C@@H](C)C(=O)N[C@@H]([C@@H](C)CC)C(=O)N[C@@H]([C@@H](C)CC)C(=O)O[C@H]1C)[C@@H](C)CC | µg/mL | ≤ | 0.0625
CC[C@@H](C)[C@@H](NC(=O)[C@@H](CCCNC(=N)N)NC(=O)[C@H](CCCNC(=N)N)NC(=O)[C@@H](NC(=O)[C@@H](Cc1ccccc1)NC)[C@@H](C)CC)C(=O)N[C@H](C(=O)N[C@@H](CO)C(=O)N[C@H]1C(=O)N[C@@H](C)C(=O)N[C@@H](CC(C)C)C(=O)N[C@@H]([C@@H](C)CC)C(=O)O[C@H]1C)[C@@H](C)CC [Compound 28, Arg3-D-Arg4-Leu10-teixobactin] (H-[dNMeF]IR[dR][dI]IS[dT]ALI; ester 8-C) | µg/mL | = | 0.25
CC[C@@H](C)[C@@H](NC(=O)[C@@H](CCCNC(=N)N)NC(=O)[C@H](CO)NC(=O)[C@@H](NC(=O)[C@@H](Cc1ccccc1)NC)[C@@H](C)CC)C(=O)N[C@H](C(=O)N[C@@H](CO)C(=O)N[C@H]1C(=O)N[C@@H](CCCNC(=N)N)C(=O)N[C@@H](CC(C)C)C(=O)N[C@@H]([C@@H](C)CC)C(=O)O[C@H]1C)[C@@H](C)CC [Compound 30, D-Arg4-Arg9-Leu10-teixobactin] (H-[dNMeF]IS[dR][dI]IS[dT]RLI; ester 8-C) | µg/mL | = | 1

###

tested on: MRSA 1003; type: cell-based, Staphylococcus aureus
Bridge positions count the residues as written; N and C are the ends. Square brackets hold non-standard residues; d marks the D form. Peptide text beside a SMILES is read from it. dNMeF = CN[C@H](Cc1ccccc1)C(=O)O
Listing of recorded MIC by entry.

molecule | MIC
CCC(C)[C@@H]1NC(=O)[C@H](C)NC(=O)[C@H](NC(=O)[C@H](CO)NC(=O)[C@@H](NC(=O)[C@H](NC(=O)[C@@H](CCCNC(=N)N)NC(=O)[C@H](CO)NC(=O)[C@@H](NC(=O)[C@@H](Cc2ccccc2)NC)[C@@H](C)CC)[C@H](C)CC)[C@@H](C)CC)[C@H](C)OC(=O)[C@H]([C@@H](C)CC)NC1=O (some centres unmarked) | <0.0625 µg/mL
CC[C@@H](C)[C@@H](NC(=O)[C@@H](CCC(N)=O)NC(=O)[C@H](CCCNC(=N)N)NC(=O)[C@@H](NC(=O)[C@@H](Cc1ccccc1)NC)[C@@H](C)CC)C(=O)N[C@H](C(=O)N[C@@H](CO)C(=O)N[C@H]1C(=O)N[C@@H](C)C(=O)N[C@@H](CC(C)C)C(=O)N[C@@H]([C@@H](C)CC)C(=O)O[C@H]1C)[C@@H](C)CC [Compound 25, Arg3-Leu10-teixobactin] (H-[dNMeF]IR[dQ][dI]IS[dT]ALI; ester 8-C) | <0.0625 µg/mL

###

system: VRE 1004; type: cell-based, Enterococcus faecalis
Bridge positions count the residues as written; N and C are the ends. Square brackets hold non-standard residues; d marks the D form. Peptide text beside a SMILES is read from it. dNMeF = CN[C@H](Cc1ccccc1)C(=O)O
Listing of recorded MIC by entry.

compound | MIC
CC[C@@H](C)[C@@H](NC(=O)[C@@H](CCCNC(=N)N)NC(=O)[C@H](CO)NC(=O)[C@@H](NC(=O)[C@@H](Cc1ccccc1)NC)[C@@H](C)CC)C(=O)N[C@H](C(=O)N[C@@H](CO)C(=O)N[C@H]1C(=O)N[C@@H](C)C(=O)N[C@@H](CC(C)C)C(=O)N[C@@H]([C@@H](C)CC)C(=O)O[C@H]1C)[C@@H](C)CC | 0.25 µg/mL
CC[C@@H](C)[C@@H](NC(=O)[C@@H](CCC(N)=O)NC(=O)[C@H](CO)NC(=O)[C@@H](NC(=O)[C@@H](Cc1ccccc1)NC)[C@@H](C)CC)C(=O)N[C@H](C(=O)N[C@@H](CO)C(=O)N[C@H]1C(=O)N[C@@H](CCCNC(=N)N)C(=O)N[C@@H](CC(C)C)C(=O)N[C@@H]([C@@H](C)CC)C(=O)O[C@H]1C)[C@@H](C)CC [Compound 27, Arg9-Leu10-teixobactin] (H-[dNMeF]IS[dQ][dI]IS[dT]RLI; ester 8-C) | 0.25 µg/mL
CC[C@@H](C)[C@@H](NC(=O)[C@@H](CCC(N)=O)NC(=O)[C@H](CCCNC(=N)N)NC(=O)[C@@H](NC(=O)[C@@H](Cc1ccccc1)NC)[C@@H](C)CC)C(=O)N[C@H](C(=O)N[C@@H](CO)C(=O)N[C@H]1C(=O)N[C@@H](C)C(=O)N[C@@H](CC(C)C)C(=O)N[C@@H]([C@@H](C)CC)C(=O)O[C@H]1C)[C@@H](C)CC [Compound 25, Arg3-Leu10-teixobactin] (H-[dNMeF]IR[dQ][dI]IS[dT]ALI; ester 8-C) | <0.0625 µg/mL
CC[C@@H](C)[C@@H](NC(=O)[C@@H](CCCNC(=N)N)NC(=O)[C@H](CCCNC(=N)N)NC(=O)[C@@H](NC(=O)[C@@H](Cc1ccccc1)NC)[C@@H](C)CC)C(=O)N[C@H](C(=O)N[C@@H](CO)C(=O)N[C@H]1C(=O)N[C@@H](CCCNC(=N)N)C(=O)N[C@@H](CC(C)C)C(=O)N[C@@H]([C@@H](C)CC)C(=O)O[C@H]1C)[C@@H](C)CC [Compound 31, Arg3-D-Arg4-Arg9-Leu10-teixobactin] (H-[dNMeF]IR[dR][dI]IS[dT]RLI; ester 8-C) | 4 µg/mL
CC[C@@H](C)[C@@H](NC(=O)[C@@H](CCC(N)=O)NC(=O)[C@H](CCCNC(=N)N)NC(=O)[C@@H](NC(=O)[C@@H](Cc1ccccc1)NC)[C@@H](C)CC)C(=O)N[C@H](C(=O)N[C@@H](CO)C(=O)N[C@H]1C(=O)N[C@@H](CCCNC(=N)N)C(=O)N[C@@H](CC(C)C)C(=O)N[C@@H]([C@@H](C)CC)C(=O)O[C@H]1C)[C@@H](C)CC [Compound 29, Arg3-Arg9-Leu10-teixobactin] (H-[dNMeF]IR[dQ][dI]IS[dT]RLI; ester 8-C) | 0.5 µg/mL
